test: PK study of Form I of Compound II in monkeys; format: in vivo; conditions: male, cynomolgus monkey, plasma, po, 75 mg/kg, PO dose of 75 mg/kg, 6 hr, #0612169, read-out: plasma concentration

compound	quantity unit	concentration at 6 hr
CC[C@H](C)[C@H](NC(=O)OC)C(=O)N1CCC[C@H]1c1nc2ccc(-c3ccc4cc(-c5cnc([C@@H]6CCCN6C(=O)[C@@H](NC(=O)OC)[C@@H](C)OC)[nH]5)ccc4c3)cc2[nH]1 [Form I of Compound II]	ng/mL	194

###

assay: Solubility of Form I and free base compound 4-3 (visual and HPLC assay of filtrate); type: physicochemical; details: pH 6 medium, pH 6, aqueous buffer, thermodynamic from solid, pH 6 medium; target conc. 2.0 mg/mL; 24 hours ambient; 0.45-μm filtrate; read-out: HPLC Solubility
endpoint name: solubility at 24 h

query smiles	endpoint name	result
CC[C@H](C)[C@H](NC(=O)OC)C(=O)N1CCC[C@H]1c1nc2ccc(-c3ccc4cc(-c5cnc([C@@H]6CCCN6C(=O)[C@@H](NC(=O)OC)[C@@H](C)OC)[nH]5)ccc4c3)cc2[nH]1	solubility at 24 h	< 1 µg/mL

###

assay: PK study of Form I of Compound II in monkeys; assay type: in vivo; settings: male, cynomolgus monkey, plasma, po, 75 mg/kg, PO dose of 75 mg/kg, 4 hr, #0610703, read-out: plasma concentration

compound	concentration at 4 hr [ng/mL]
CC[C@H](C)[C@H](NC(=O)OC)C(=O)N1CCC[C@H]1c1nc2ccc(-c3ccc4cc(-c5cnc([C@@H]6CCCN6C(=O)[C@@H](NC(=O)OC)[C@@H](C)OC)[nH]5)ccc4c3)cc2[nH]1 [Form I of Compound II]	213

###

assay: PK study of Form I of Compound II in monkeys; assay type: in vivo; conditions: male, cynomolgus monkey, plasma, po, 75 mg/kg, PO dose of 75 mg/kg, 1 hr, #0610703, read-out: plasma concentration

compound	quantity unit	concentration at 1 hr
CC[C@H](C)[C@H](NC(=O)OC)C(=O)N1CCC[C@H]1c1nc2ccc(-c3ccc4cc(-c5cnc([C@@H]6CCCN6C(=O)[C@@H](NC(=O)OC)[C@@H](C)OC)[nH]5)ccc4c3)cc2[nH]1 [Form I of Compound II]	ng/mL	497

###

test: PK study of Form A of Compound I in rats; type: in vivo; details: male, Sprague-Dawley, rat, plasma, po, 75 mg/kg, single PO dose of 75 mg/kg, male SD rats, 24 hr, Rat #1; read-out: plasma concentration
endpoint name: concentration at 24 h (ng/mL)

molecule	endpoint name	quantity unit	numeric value
COC(=O)N[C@H](C(=O)N1CCC[C@H]1c1ncc(-c2ccc3cc(-c4ccc5nc([C@@H]6CCCN6C(=O)[C@@H](NC(=O)OC)C(C)C)[nH]c5c4)ccc3c2)[nH]1)C(C)C [Form A of Compound I]	concentration at 24 h	ng/mL	8.12

###

assay: PK study of Form A of Compound I in dogs; type: in vivo; conditions: beagle, dog, plasma, po, 75 mg/kg, PO dose of 75 mg/kg, 6 hr, Dog #2, read-out: plasma concentration

compound	quantity unit	concentration at 6 hr
COC(=O)N[C@H](C(=O)N1CCC[C@H]1c1ncc(-c2ccc3cc(-c4ccc5nc([C@@H]6CCCN6C(=O)[C@@H](NC(=O)OC)C(C)C)[nH]c5c4)ccc3c2)[nH]1)C(C)C [Form A of Compound I]	ng/mL	1320

###

test: PK study of Form A of Compound I in dogs; assay type: in vivo; settings: beagle, dog, plasma, po, 75 mg/kg, PO dose of 75 mg/kg, 1 hr, Mean, read-out: mean plasma concentration

compound	concentration at 1 hr, ng/mL
COC(=O)N[C@H](C(=O)N1CCC[C@H]1c1ncc(-c2ccc3cc(-c4ccc5nc([C@@H]6CCCN6C(=O)[C@@H](NC(=O)OC)C(C)C)[nH]c5c4)ccc3c2)[nH]1)C(C)C [Form A of Compound I]	1820

###

experiment: PK study of Form A of Compound I in dogs; format: in vivo; details: beagle, dog, plasma, po, 75 mg/kg, PO dose of 75 mg/kg, 0.25 hr, Dog #1, read-out: plasma concentration

molecule	concentration at 0.25 h [ng/mL]
COC(=O)N[C@H](C(=O)N1CCC[C@H]1c1ncc(-c2ccc3cc(-c4ccc5nc([C@@H]6CCCN6C(=O)[C@@H](NC(=O)OC)C(C)C)[nH]c5c4)ccc3c2)[nH]1)C(C)C [Form A of Compound I]	267

###

test: PK study of Form A of Compound I in dogs; format: in vivo; details: beagle, dog, plasma, po, 75 mg/kg, PO dose of 75 mg/kg, 0.5 hr, Dog #2, read-out: plasma concentration

compound	quantity unit	concentration at 0.5 hr
COC(=O)N[C@H](C(=O)N1CCC[C@H]1c1ncc(-c2ccc3cc(-c4ccc5nc([C@@H]6CCCN6C(=O)[C@@H](NC(=O)OC)C(C)C)[nH]c5c4)ccc3c2)[nH]1)C(C)C [Form A of Compound I]	ng/mL	952

###

experiment: PK study of Form A of Compound I in rats; assay type: in vivo; details: male, Sprague-Dawley, rat, plasma, po, 75 mg/kg, single PO dose of 75 mg/kg, male SD rats, 2 hr, Mean (N = 3); read-out: mean plasma concentration
endpoint name: concentration at 2 h (ng/mL)

compound	numeric value
COC(=O)N[C@H](C(=O)N1CCC[C@H]1c1ncc(-c2ccc3cc(-c4ccc5nc([C@@H]6CCCN6C(=O)[C@@H](NC(=O)OC)C(C)C)[nH]c5c4)ccc3c2)[nH]1)C(C)C [Form A of Compound I]	7430

###

test: PK study of Form A of Compound I in dogs; format: in vivo; details: beagle, dog, plasma, po, 75 mg/kg, PO dose of 75 mg/kg, 0.5 hr, Dog #1
endpoint name: concentration at 0.5 h (ng/mL)

molecule	endpoint name	numeric value
COC(=O)N[C@H](C(=O)N1CCC[C@H]1c1ncc(-c2ccc3cc(-c4ccc5nc([C@@H]6CCCN6C(=O)[C@@H](NC(=O)OC)C(C)C)[nH]c5c4)ccc3c2)[nH]1)C(C)C [Form A of Compound I]	concentration at 0.5 h	1090

###

experiment: PK study of Form A of Compound I in rats; format: in vivo; conditions: male, Sprague-Dawley, rat, plasma, po, 75 mg/kg, single PO dose of 75 mg/kg, male SD rats, 4 hr, Mean (N = 3); read-out: mean plasma concentration

compound	quantity unit	concentration at 4 h
COC(=O)N[C@H](C(=O)N1CCC[C@H]1c1ncc(-c2ccc3cc(-c4ccc5nc([C@@H]6CCCN6C(=O)[C@@H](NC(=O)OC)C(C)C)[nH]c5c4)ccc3c2)[nH]1)C(C)C [Form A of Compound I]	µg/mL	3.93

###

test: PK study of Form I of Compound II in monkeys; assay type: in vivo; details: male, cynomolgus monkey, plasma, po, 75 mg/kg, PO dose of 75 mg/kg, 0.25 hr, #0610703, read-out: plasma concentration

compound	concentration at 0.25 h
CC[C@H](C)[C@H](NC(=O)OC)C(=O)N1CCC[C@H]1c1nc2ccc(-c3ccc4cc(-c5cnc([C@@H]6CCCN6C(=O)[C@@H](NC(=O)OC)[C@@H](C)OC)[nH]5)ccc4c3)cc2[nH]1 [Form I of Compound II]	33.3 ng/mL

###

Assay: PK study of Form A of Compound I in rats
Type: in vivo
Details: male, Sprague-Dawley, rat, plasma, po, 75 mg/kg, single PO dose of 75 mg/kg, male SD rats, 1 hr, Rat #2; read-out: plasma concentration
Experimental: The pharmacokinetics (PK) properties of Form A of Compound I and Form I of Compound II were determined in a series of comprehensive experiments in preclinical species including Sprague-Dawley rats, beagle dogs, cynomolgus monkeys. […] For the validated assay in rat and monkey EDTA plasma, the Lower Limit of Quantitation (LLOQ) for both compound 1 and 2 was 5.00 ng/mL, and the assay was linear from 5.00-1,000 ng/mL. […]

compound	concentration at 1 h, ng/mL
COC(=O)N[C@H](C(=O)N1CCC[C@H]1c1ncc(-c2ccc3cc(-c4ccc5nc([C@@H]6CCCN6C(=O)[C@@H](NC(=O)OC)C(C)C)[nH]c5c4)ccc3c2)[nH]1)C(C)C [Form A of Compound I]	5480

###

test: Solubility of Form A (aliquot addition / slurry, visual); format: physicochemical; details: organic solvent or mixture, thermodynamic from solid; IPA:tBME (2:1), RT, aliquot addition
endpoint name: solubility

compound	endpoint name	result
COC(=O)N[C@H](C(=O)N1CCC[C@H]1c1ncc(-c2ccc3cc(-c4ccc5nc([C@@H]6CCCN6C(=O)[C@@H](NC(=O)OC)C(C)C)[nH]c5c4)ccc3c2)[nH]1)C(C)C [Form A of Compound I]	solubility	< 2000 µg/mL
